Target: K-Ras (Q61H) (Homo sapiens, UniProt P01116, Q61H)
Sequence (P01116 1-188 isoform P01116-2 Q61H): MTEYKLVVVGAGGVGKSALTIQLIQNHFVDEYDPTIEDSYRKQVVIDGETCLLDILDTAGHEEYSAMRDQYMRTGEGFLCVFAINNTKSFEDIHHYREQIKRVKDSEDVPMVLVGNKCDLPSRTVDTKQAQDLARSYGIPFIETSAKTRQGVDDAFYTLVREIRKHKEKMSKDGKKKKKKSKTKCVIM
Assay: Scintillation Proximity Assay (SPA), GTP affinity
Type: binding
assay.metric: Kd (nM)

>>> print(df.to_string())
                                   compound  value
0  Nc1nc2c(ncn2[C@@H]2O[C@H](COP(=O)(O)OP(=O)(O)OP(=O)(O)O)[C@@H](O)[C@H]2O)c(=O)[nH]1 [GTP]    118

====

Test system: KRas wild type
Experiment: Ras GTP binding domain inhibition assay (Cy3-GTP/Cy5-GTP competition)
Design: species or system human
Conditions: 20 μM; without SOS (Table 7A)
assay.metric: KRas wild type % inh.

                                    compound                   value
 0  COc1cccc(-c2sc3nc(-c4nccn4C)nc(NC4CCC(OC)C4)c3c2-c2ccccc2)c1F (stereo not drawn) [drawing 883]   C (51-75% inhibition)
 1  COCCn1ccnc1-c1nc(O)c2scc(-c3ccc(OCC(C)C)nc3)c2n1 [drawing 898]   C (51-75% inhibition)
 2  COc1cccc(-c2sc3nc(-c4nccn4C)nc(N[C@@H]4CC[C@H](OC)C4)c3c2-c2ccccc2)c1F [drawing 884]   C (51-75% inhibition)
 3  CO[C@H]1C[C@@H](Nc2nc(-c3ccccn3)nc3sccc23)C1 [drawing 902]   C (51-75% inhibition)
 4  COC1CCC(Nc2nc(-c3nccn3C)nc3sc(-c4cccc(O)c4F)c(-c4ccccc4)c23)C1 (stereo not drawn) [drawing 885]   B (26-50% inhibition)
 5  Cn1ccc(-c2sc3nc(-c4nccn4C)nc(N[C@@H]4CC[C@H](O)C4)c3c2-c2ccccc2)n1 (racemic) [drawing 909]    A (1-25% inhibition)
 6  COCCNC(=O)c1sc2nc(-c3nccn3C)nc(N[C@H]3C[C@@H](OC)C3)c2c1-c1ccccc1 [drawing 921]  D (76-100% inhibition)
 7  CO[C@H]1CC[C@@H](Nc2nc(-c3nccn3C)nc3sc(C(=O)NC(C)C)c(-c4ccccc4)c23)C1 [drawing 924]  D (76-100% inhibition)
 8  CO[C@H]1CC[C@@H](Nc2nc(-c3ncc[nH]3)nc3sc(-c4ccn(C)n4)c(-c4ccccc4)c23)C1 [drawing 911]   C (51-75% inhibition)
 9  COc1c(F)cccc1-c1sc2nc(-c3nccn3C)nc(N[C@@H]3CC[C@H](OC)C3)c2c1-c1ccccc1 [drawing 887]  D (76-100% inhibition)
10  CO[C@H]1C[C@@H](Nc2nc(-c3nccn3C)nc3sc(C(=O)NC(C)C)c(-c4ccccc4)c23)C1 [drawing 920]   C (51-75% inhibition)
11  CO[C@H]1C[C@@H](Nc2nc(-c3nccn3C)nc3sc(C(=O)N4CCOCC4)c(-c4ccccc4)c23)C1 [drawing 922]   C (51-75% inhibition)
12  CO[C@H]1CC[C@@H](Nc2nc(-c3nccn3C)nc3sc(C(=O)N4CCCC4)c(-c4ccccc4)c23)C1 [drawing 926]   C (51-75% inhibition)
13  COC1CCC(Nc2nc(-c3nccn3C)nc3sc(-c4cccc5[nH]ncc45)c(-c4ccccc4)c23)C1 (stereo not drawn) [drawing 888]   B (26-50% inhibition)
14  CO[C@H]1CC[C@@H](Nc2nc(-c3nccn3C)nc3sc(-c4cccc5[nH]ncc45)c(-c4ccccc4)c23)C1 [drawing 889]   C (51-75% inhibition)
15  COC1CCN(C(=O)c2sc3nc(-c4nccn4C)nc(N[C@H]4C[C@@H](OC)C4)c3c2-c2ccccc2)C1 (stereo partly drawn) [drawing 923]   C (51-75% inhibition)
16  COC1CCC(Nc2nc(-c3nccn3C)nc3sc(-c4cccc5[nH]ncc45)c(C)c23)C1 (stereo not drawn) [drawing 895]   B (26-50% inhibition)
17  COc1cccc(-c2sc3nc(-c4nc(C)cn4C)nc(N[C@@H]4CC[C@H](OC)C4)c3c2C)c1F [drawing 896]    A (1-25% inhibition)
18  COC1CCN(c2nc(-c3nccn3C)nc3sc(-c4cccc(O)c4F)c(-c4ccccc4)c23)C1 (stereo not drawn) [drawing 890]   B (26-50% inhibition)
19  CO[C@H]1C[C@@H](Nc2nc(-c3nccn3C)nc3sccc23)C1 [drawing 903]   C (51-75% inhibition)
20  CCn1cc(Nc2nc(-c3ccccn3)nc(O)c2OC)cn1 [drawing 881]   C (51-75% inhibition)
21  Cc1c(-c2ccn(C)n2)sc2nc(-c3nccn3C)nc(NCCCS(C)(=O)=O)c12 [drawing 916]   C (51-75% inhibition)
22  COc1cccc(Cn2ccnc2-c2nc(O)c3scc(-c4ccc(OCC(C)C)nc4)c3n2)c1 [drawing 900]   C (51-75% inhibition)
23  Cn1ccc(-c2sc3nc(-c4nccn4C)nc(N[C@H]4C[C@@H](O)C4)c3c2-c2ccccc2)n1 [drawing 908]    A (1-25% inhibition)
24  COc1c(O)nc(-c2ccccn2)nc1Oc1ccc(C(=O)N(C)C)cc1 [drawing 879]   B (26-50% inhibition)
25  CC(C)COc1ccc(-c2csc3c(O)nc(-c4nccn4Cc4ccccn4)nc23)cn1 [drawing 899]  D (76-100% inhibition)
26  COc1c(O)nc(-c2ccccn2)nc1Nc1ccccc1 [drawing 880]   C (51-75% inhibition)
27  CO[C@H]1C[C@@H](Nc2nc(-c3nccn3C)nc3sc(-c4ccn(C)n4)c(C)c23)C1 [drawing 914]   C (51-75% inhibition)
28  CN(C)CCOCCNc1nc(-c2nccn2C)nc2sc(-c3ccn(C)n3)c(-c3ccccc3)c12 [drawing 907]   C (51-75% inhibition)
29  CO[C@H]1CC[C@@H](Nc2nc(-c3nccn3C)nc3sc(C(=O)N4CCOCC4)c(-c4ccccc4)c23)C1 [drawing 927]  D (76-100% inhibition)

Origin of values: patent US20250296938A1
